GI50: recorded values
- Tested on: SR
- Protocol text: NCI tumour cell line growth inhibition, 48 h
The source made the active and inactive calls. Rule as the data show it: active = GI50 up to about 1.1 µM and inactive = higher.
Reported property: GI50

Compound	Assay system	Reported property	Recorded result
CN1C(=O)C(=CNc2ccccc2Cl)C(=O)N(C)C1=O	SR	GI50	19.4 µM (inactive)
C[Si](C)(C)C1=C2C(=O)c3ccccc3C(=O)C2=C([Si](C)(C)C)[C@@H]2CCCC[C@H]12	SR	GI50	> 100 µM (inactive)
C(=N/NC1=NCCN1)/c1c2ccccc2c(/C=N\NC2=NCCN2)c2ccccc12	SR	GI50	0.00879 µM (active)
COC1/C=C/C(C)C(C(C)C(OC)C(C)CCC(=O)C(C)C(CCC(=O)O)OC)OC(=O)/C=C/C=C(\C)CC(OC)CC2=CC(=O)O[C@@H](C(C)C(OC)CC(OC)/C=C/C(C)C(OC)C1)[C@H]2O (some centres undefined)	SR	GI50	0.637 µM (active)
Cc1cccc2nc(-c3ccccc3)cc(=O)n12	SR	GI50	87.5 µM (inactive)
O=C1NC2(CCCCC2)C(=O)N1CCN(CCCl)CCCl	SR	GI50	19.4 µM (inactive)
c1ccc(-c2c3c(nc4c2CC[C@H]4NC2=NCCN2)[C@@H](NC2=NCCN2)CC3)cc1	SR	GI50	> 100 µM (inactive)
Cn1c2ccccc2c2cc(-c3ccccc3)c3c(c21)C(=O)c1ccccc1C3=O	SR	GI50	4.79 µM (inactive)
COC(=O)Nc1nc(=O)c2cc(OC)c(OC)cc2[nH]1	SR	GI50	> 100 µM (inactive)
